Data provenance is patent US10975037B2.

Biological target: human RORγt ligand binding domain (RORγt LBD) (Homo sapiens (Human))
Assay: RORγt ThermoFluor® assay (thermal shift binding)
Conditions: read-out: ThermoFluor® Assay, Kd
pKd: −log10 of the molar value.
measurement.name: pKd

Recorded results for 4 molecules are shown here.
given.smiles | pKd
CCn1nc(C(=O)NC[C@H]2CC[C@H](S(C)(=O)=O)CC2)c(C)c1-c1ccc(CCC(F)(F)F)cc1OC | 7.92
CCn1nc(C(=O)NC[C@H]2CC[C@H](S(C)(=O)=O)CC2)c(Cl)c1-c1ccc(OC2CCC(F)(F)CC2)cc1OC | 8.00
CCn1nc(C(=O)NC[C@H]2CC[C@H](S(C)(=O)=O)CC2)c(Cl)c1-c1ccc(OCCC(F)(F)F)cc1OC | 7.47
CCn1nc(C(=O)NC[C@H]2CC[C@H](S(=O)(=O)NC(=O)NC)CC2)c(Cl)c1-c1ccc(CC(C)(C)C(F)(F)F)cc1OC(F)F | 9.64

(I) CCn1nc(C(=O)NC[C@H]2CC[C@H](S(C)(=O)=O)CC2)c(Cl)c1-c1ccc(OCC(C)(F)F)cc1OC
(II) CCn1nc(C(=O)NC[C@]2(O)CC[C@@H](S(C)(=O)=O)CC2)c(Cl)c1-c1ccc(CCC(F)(F)F)cc1OC(F)(F)F
(III) CCn1nc(C(=O)NC[C@]2(C#N)CC[C@@H](S(C)(=O)=O)CC2)c(Cl)c1-c1ccc(CC(C)(C)C(F)(F)F)cc1
Inquiry: Given 3 molecules, produce a descending ranking by pKd. # the answer lists labels in the order requested
Reply text: III, II, I
(III: 8.47, II: 7.96, I: 7.41)

(P) CCn1nc(C(=O)NC[C@]2(O)CC[C@@H](S(C)(=O)=O)CC2)c(Cl)c1-c1ccc(CCC(F)(F)F)cc1OC
(Q) CCn1nc(C(=O)NC[C@H]2CC[C@H](S(C)(=O)=O)CC2)c(Cl)c1-c1ccc(N[C@H](C)C(F)(F)F)cc1
Inquiry: // which entry has the larger pKd value, P or Q ? State your choice using its label.
Reply text: P
(P: 8.00, Q: 7.54)

---

Molecular target: full-length human RORγt (Homo sapiens (Human))
Assay: RORγt (full-length human) reporter assay, conditions A or B, HEK293T cells
Format: cell-based
Settings: HEK-293T; 0.33 μM compound concentration (footnote *****); read-out: RORγt (FL) Reporter Assay A or B, % inhibition
measurement.name: inhibition at […] (%)

compound | number
CCn1nc(C(=O)NC[C@H]2CC[C@H](S(C)(=O)=O)C[C@@H]2O)c(Cl)c1-c1ccc(CC(C)(C)C(F)(F)F)cc1OC(F)F (single isomer, unassigned) | 103
CCn1nc(C(=O)NC[C@H]2CC[C@H](S(C)(=O)=O)CC2)c(Cl)c1-c1ccc(C[C@@H](C)C(F)(F)F)cc1OC(F)F (single isomer, unassigned) | 83
CCS(=O)(=O)[C@H]1CC[C@H](CNC(=O)c2nn(C)c(-c3ccc(CC(C)(C)C(F)(F)F)cc3OC(F)F)c2Cl)CC1 | 89

(I) CCn1nc(C(=O)NC[C@]2(O)CC[C@@H](S(C)(=O)=O)CC2)c(C)c1-c1ccc(CCC(F)(F)F)cc1OC(F)F
(II) CCn1nc(C(=O)NC[C@H]2CC[C@H](S(C)(=O)=O)CC2)c(Cl)c1-c1ccc(CC(C)(C)CC(F)(F)F)cc1OC(F)F
Inquiry: Just tell me: smaller inhibition at […] value, I or II ? State your choice using its label.
Reply text: I

---

Molecular target: full-length human RORγt (Homo sapiens (Human), UniProt P51449)
Sequence (P51449 other isoform, or with tags, fused parts or gaps): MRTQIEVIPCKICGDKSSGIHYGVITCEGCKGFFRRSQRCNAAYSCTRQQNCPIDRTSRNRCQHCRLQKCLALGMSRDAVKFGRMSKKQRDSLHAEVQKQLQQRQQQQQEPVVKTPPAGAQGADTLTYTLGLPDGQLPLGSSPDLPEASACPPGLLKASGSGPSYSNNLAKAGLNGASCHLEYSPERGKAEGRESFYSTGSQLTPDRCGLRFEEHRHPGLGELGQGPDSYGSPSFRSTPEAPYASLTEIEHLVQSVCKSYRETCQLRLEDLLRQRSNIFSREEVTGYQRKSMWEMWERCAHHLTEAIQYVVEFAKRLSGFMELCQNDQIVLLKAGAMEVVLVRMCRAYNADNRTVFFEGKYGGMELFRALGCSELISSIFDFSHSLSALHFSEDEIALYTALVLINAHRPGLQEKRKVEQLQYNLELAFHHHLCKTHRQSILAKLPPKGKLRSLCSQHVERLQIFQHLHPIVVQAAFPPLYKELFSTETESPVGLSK
Experiment: RORγt (full-length human) reporter assay, conditions A or B, HEK293T cells
Format: cell-based
Details: HEK-293T; 3 μM compound concentration (footnote *); read-out: RORγt (FL) Reporter Assay A or B, % inhibition
Where a name gives a salt, the structure may show the parent alone.
measurement.name: inhibition at 3 µM (%)

compound | inhibition at 3 µM, %
CCn1nc(C(=O)NC[C@@]2(O)CC[C@H](S(C)(=O)=O)C[C@@H]2O)c(C)c1-c1ccc(C[C@@H](C)C(F)(F)F)cc1OC(F)F (stereo in doubt) [Example 141] | 84
CCn1nc(C(=O)NC[C@]2(O)CC[C@@H](S(C)(=O)=O)CC2)c(Cl)c1-c1ccc(C(C)(O)CCC(F)(F)F)cc1OC(F)F (some centres unmarked) [Example 101] | 115
CCn1nc(C(=O)NC[C@]2(O)CC[C@@H](S(C)(=O)=O)C[C@H]2N)c(Cl)c1-c1ccc(CC(C)(C)C(F)(F)F)cc1OC(F)F (stereo in doubt) [Example 5, Hydrobromide] | 103
CCn1nc(C(=O)NC[C@H]2CC[C@H](S(C)(=O)=O)CN2)c(Cl)c1-c1ccc(CC(C)(C)C(F)(F)F)cc1OC(F)F (stereo in doubt) [Example 8, Hydrobromide] | 92
CCn1nc(C(=O)NC[C@]2(O)CC[C@@H](S(C)(=O)=O)CC2)c(Cl)c1-c1ccc(C(O)(C(F)(F)F)C(F)(F)F)cc1OC(F)F [Example 117] | 102

---

Target: human RORγt ligand binding domain (RORγt LBD) (Homo sapiens (Human), UniProt P51449)
Sequence (P51449 other isoform, or with tags, fused parts or gaps): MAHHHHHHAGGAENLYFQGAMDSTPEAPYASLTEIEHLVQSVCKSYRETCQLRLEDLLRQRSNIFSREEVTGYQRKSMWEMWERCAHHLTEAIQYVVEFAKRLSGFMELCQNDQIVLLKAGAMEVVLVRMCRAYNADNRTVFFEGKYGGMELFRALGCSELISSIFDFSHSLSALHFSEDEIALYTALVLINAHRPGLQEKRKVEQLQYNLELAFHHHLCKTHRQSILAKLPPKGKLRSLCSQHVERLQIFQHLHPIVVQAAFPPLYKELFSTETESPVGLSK
Test: RORγt ThermoFluor® assay (thermal shift binding)
Settings: read-out: ThermoFluor® Assay, Kd
Description: This approach is applicable to a wide variety of systems, and rigorous in theoretical interpretation through quantitation of equilibrium binding constants (KD). The shift in the melting point described as a ΔTm is proportional to the concentration and affinity of the ligand. RORγt ThermoFluor® Assay Construct […]
measurement.name: Kd (nM)

Recorded results for 6 compounds are shown here.
compound | unit.annotation | number
CCn1nc(C(=O)NC[C@H]2CC[C@H](S(C)(=O)=O)CC2)c(Cl)c1-c1ccc(CCCC(F)(F)F)cc1OC [Example 80] | nM | 2.3
COCCn1nc(C(=O)NC[C@H]2CC[C@H](S(C)(=O)=O)CC2)c(Cl)c1-c1ccc(CC(C)(C)C(F)(F)F)cc1OC [Example 185] | nM | 2.4
COc1cc(N[C@H](C)C(F)(F)F)ccc1-c1c(Cl)c(C(=O)NC[C@H]2CC[C@H](S(C)(=O)=O)CC2)nn1CCO [Example 201] | nM | 200
CCn1nc(C(=O)NC[C@H]2CC[C@H](S(C)(=O)=O)CC2)c(Cl)c1-c1ccc(CC(C)C)cc1OC [Example 72] | nM | 0.29
CCn1nc(C(=O)NC[C@H]2CC[C@H](S(=O)(=O)NC=O)CC2)c(Cl)c1-c1ccc(CC(C)(C)C(F)(F)F)cc1OC(F)F [Example 67] | nM | 0.039
CCn1nc(C(=O)NC[C@]2(C#N)CC[C@@H](S(C)(=O)=O)CC2)c(Cl)c1-c1ccc(CC(C)(C)C(F)(F)F)cc1Cl [Example 166] | nM | 0.71

(P) CCn1nc(C(=O)NC[C@]2(O)CC[C@@H](S(C)(=O)=O)CC2)c(Cl)c1-c1ccc(C(O)CCC(F)(F)F)cc1OC(F)F (stereo partly drawn) [Example 98]
(Q) CCn1nc(C(=O)NC[C@H]2CC[C@H](S(C)(=O)=O)CC2)c(C(F)(F)F)c1-c1ccc(N[C@H](C)C(F)(F)F)cc1OC [Example 218]
(R) CCn1nc(C(=O)NC[C@H]2CC[C@H](S(C)(=O)=O)CC2)c(Cl)c1-c1ccc(CCC(F)(F)F)cc1C(F)(F)F [Example 171]
(S) CCn1nc(C(=O)NC[C@]2(O)CC[C@@H](S(C)(=O)=O)CC2)c(Cl)c1-c1ccc(C(=O)C(C)(C)C(F)(F)F)cc1OC(F)F [Example 105]
(T) CCn1nc(C(=O)NC[C@]2(C(N)=O)CC[C@H](S(C)(=O)=O)CC2)c(Cl)c1-c1ccc(N[C@H](C)C(F)(F)F)cc1OC [Example 34]
Inquiry: Given 5 compounds, produce a descending ranking by Kd. # the answer lists labels in the order requested
Reply text: T, P, R, Q, S
(T: 3000 nM, P: 310 nM, R: 14 nM, Q: 6.3 nM, S: 3.3 nM)

---

Molecular target: human RORγt ligand binding domain (RORγt LBD) (Homo sapiens (Human))
Assay: RORγt ThermoFluor® assay (thermal shift binding)
Conditions: read-out: ThermoFluor® Assay, Kd
pKd: −log10 of the molar value.
measurement.name: pKd

Recorded results for 4 compounds are shown here.
compound | number
CCn1nc(C(=O)NC[C@]2(O)CC[C@@H](S(C)(=O)=O)CC2)c(Cl)c1-c1ccc(N[C@H](C)C(F)(F)F)cc1 | 7.28
CCn1nc(C(=O)NC[C@H]2CC[C@H](S(C)(=O)=O)CC2)c(Cl)c1-c1ccc(N[C@H](C)C(F)(F)F)cc1F | 8.15
CCn1nc(C(=O)NC[C@H]2CC[C@H](S(C)(=O)=O)CC2)c(C#N)c1-c1ccc(CC(C)(C)C(F)(F)F)cc1OC | 8.43
CCc1cc(N[C@H](C)C(F)(F)F)ccc1-c1c(Cl)c(C(=O)NC[C@H]2CC[C@H](S(C)(=O)=O)CC2)nn1CC | 8.15

(A) CCn1nc(C(=O)NC[C@H]2CC[C@H](S(C)(=O)=O)CC2)c(Cl)c1-c1ccc(CCC(F)(F)F)cc1Cl
(B) CCn1nc(C(=O)NC[C@H]2CC[C@H](S(C)(=O)=O)CC2)c(Cl)c1-c1ccc(N[C@H](C)C(F)(F)F)cc1C(C)C
Inquiry: Just tell me: smaller pKd value, A or B ? State your choice using its label.
Reply text: B
